growth reference
# Tested on: SW-620 colon
# METHOD: NCI-60 one-dose screen, 48 h (100 = growth as untreated, 0 = no growth, -100 = all killed)
# CONDITION_INFO: 10 µM unless noted
The panel holds about 83,000 compounds, 20% with a hit somewhere; the sample as a whole holds those more often.
Give just the number in %; leave the unit off.

# example entries with known answers
COMPOUND	growth / %
CCCCCCCCCCCCOC(=N)N(C)C	98.8
Brc1ccc(-c2nc3ccccc3s2)cc1	94.5

Query :: Need growth, item CCCCCCCCCCCCCCCCNC(=O)Nc1ccc(C)c(NC(=O)NCCCCCCCCCCCCCCCC)c1
Result :: 107

Query :: Proceed to Cc1c([C@H](C(Cl)Cl)[C@H](O)[C@H]2C[C@H](C)C(=O)O2)ccc2c1C(=O)[C@H]1[C@H]2C[C@@H](Br)[C@@]23O[C@@H](CO[C@H]2O)CC13C (stereo not given in full)
Result :: 14.6

Query :: Proceed to COc1cc2ncnc(-n3ncc4cc(NC(=O)Nc5ccccc5)ccc43)c2cc1OC
Result :: 49.5
